All values here come from patent US10927104B2.

Tested on: Molm-13 cells
Assay: Cell viability assay (CellTiter-Glo), Molm-13 proliferation
Format: cell-based
Settings: Homo sapiens, MOLM-13, 72 h; compound at 10 μM; 3 days
Measured quantity: inhibition at 10 µM
Express your answer as a number followed by its unit.

Below: 8 compounds and their reported inhibition at 10 µM.
O=C1CCC[C@H](N2Cc3c(OCc4cccc(CN5CCOCC5)c4)cccc3C2=O)C(=O)N1 [Compound 10] | 38%
NCc1ccc(COc2cccc3c2CN([C@H]2CCCC(=O)NC2=O)C3=O)cc1 [Compound 5, trifluoroacetic acid] | 40%
O=C1CCC[C@H](N2Cc3c(OCc4ccc(CN5CCOc6ccccc65)cc4)cccc3C2=O)C(=O)N1 [Compound 2] | 30%
O=C1CCC[C@H](N2Cc3c(OCc4ccc(CN5CCOCC5)cc4)cccc3C2=O)C(=O)N1 [Compound 1] | 37%
Cc1cnc(Nc2ccc(OCCCNC(=O)NCc3ccc(COc4cc(F)cc5c4CN([C@H]4CCC(=O)NC4=O)C5=O)cc3)cc2)nc1Nc1cccc(S(=O)(=O)NC(C)(C)C)c1 [Compound 18] | 99%
O=C1CCC[C@H](N2Cc3c(OCc4ccc(CN5CCOCC5)c(Cl)c4)cccc3C2=O)C(=O)N1 [Compound 3] | 29%
NCc1cccc(COc2cccc3c2CN([C@H]2CCCC(=O)NC2=O)C3=O)c1 [Compound 9, trifluoroacetic acid] | 34%
Cc1cnc(Nc2ccc(OCCCNCC(=O)NCc3ccc(COc4cccc5c4CN([C@H]4CCCC(=O)NC4=O)C5=O)cc3)cc2)nc1Nc1cccc(S(=O)(=O)NC(C)(C)C)c1 [Compound 6] | 91%

Consider the additional compound presented here.
Incoming: # inhibition at 10 µM lookup, item O=C1CCC[C@H](N2Cc3c(OCc4ccc(C(=O)N5CCOCC5)cc4)cccc3C2=O)C(=O)N1 [Compound 8]
Outgoing: 16%
